From: patent US20220380463A1

The entries below come with measured MFI pH 7.4 values attached.
Target: T1, human CD3 on CD3+ Jurkat cells (human, UniProt P07766 23-207)
T1 construct: whole, on cells; Native CD3 complex on cells; the other CD3 chains are not specified for this assay; also called Human CD3+ Jurkat
T1 sequence (P07766 23-207): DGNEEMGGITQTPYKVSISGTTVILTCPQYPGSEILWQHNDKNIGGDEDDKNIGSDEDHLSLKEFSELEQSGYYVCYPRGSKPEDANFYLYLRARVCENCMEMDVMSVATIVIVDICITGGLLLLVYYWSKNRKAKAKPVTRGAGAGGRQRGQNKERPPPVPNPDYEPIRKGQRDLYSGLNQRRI
Test: flow cytometry, 100 nM IgG on CD3+ Jurkat cells, pH 7.4
RECORDED_METRIC: MFI pH 7.4 (MFI)

SAD10318_P01_F02 (ADI-48585) (antibody, V domains shown, IgG; also called Ab14) VH: QVQLVQSGAEVKKPGASVKVSCKASGFNIKDYYMHWVRQAPGQRLEWMGWIDLENANTIYDAKFQGRVTITRDTSASTAYMELSSLRSEDTAVYYCARDAHGHYFYDVWGQGTLVTVSS VL: DIVMTQSPDSLAVSLGERATINCKSSQSLLNAHTGKNHLAWYQQKPGQPPKLLIYWASTRESGVPDRFSGSGSGTDFTLTISSLQAEDVAVYYCKQSHSHRTFGGGTKVEIK ... 45
SAD10318_P01_B01 (ADI-48574) (antibody, V domains shown, IgG; also called Ab2) VH: QVQLVQSGAEVKKPGASVKVSCKASGFNIKDYYMHWVRQAPGQRLEWMGWIDLENANTIYDAKFQGRVTITRDTSASTAYMELSSLRSEDTAVYYCARDAYGRYHYDHWGQGTLVTVSS VL: DIVMTQSPDSLAVSLGERATINCKSSQSLLNAHTGHNYLAWYQQKPGQPPKLLIYWASTRESGVPDRFSGSGSGTDFTLTISSLQAEDVAVYYCKQSYSRRTFGGGTKVEIK ... 150
SAD10319_P03_G08 (ADI-48638) (antibody, V domains shown, IgG; also called Ab22) VH: QVQLVQSGAEVKKPGASVKVSCKASGYTFSSYDMHWVRQAPGQRLEWMGWIDAGTGFTKYSQKFQGRVTITRDTSASTAYMELSSLRSEDTAVYYCARDAYGHYFYDHWGQGTLVTVSS VL: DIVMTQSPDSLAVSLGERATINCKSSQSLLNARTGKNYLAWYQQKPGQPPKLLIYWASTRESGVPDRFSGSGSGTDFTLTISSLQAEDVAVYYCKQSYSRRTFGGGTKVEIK ... 84
